Quick list: pKd per entry.
Measurement target: human TGFßRII (antigen of the Octet experiments) (human, UniProt P37173 23-166)
Sequence (P37173 23-166): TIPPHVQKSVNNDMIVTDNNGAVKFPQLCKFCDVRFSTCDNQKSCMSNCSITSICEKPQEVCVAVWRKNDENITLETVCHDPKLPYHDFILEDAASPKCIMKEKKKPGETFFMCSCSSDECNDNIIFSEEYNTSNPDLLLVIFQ
Test method notes: BLI (Octet)
Please treat pKd as minus the base-10 logarithm of the molar concentration.

Binder | pKd
H1.53 L1 XENP34509 (antibody, V domains shown) VH: QLQVQESGPGLVKPSETLSLTCTVSGGSISNSYFSWGWIRQPPGKGLEWIGSFYHGEKTYYNPSLKSRATISIDTSKSQFSLKLSSVTAADTAVYYCPRGPTMIRGVIDSWGQGTLVTVSS VL: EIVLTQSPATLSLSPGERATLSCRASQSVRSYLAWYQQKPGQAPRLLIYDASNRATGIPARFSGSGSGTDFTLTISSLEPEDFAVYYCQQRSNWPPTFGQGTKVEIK | 9.44
H1.65 L1 XENP34521 (antibody, V domains shown) VH: QLQVQESGPGLVKPSETLSLTCTVSGGSISNSYFSWGWIRQPPGKGLEWIGSFYYGEKTSYNPSLKSRATISIDTSKSQFSLKLSSVTAADTAVYYCPRGPTMIRGVIDSWGQGTLVTVSS VL: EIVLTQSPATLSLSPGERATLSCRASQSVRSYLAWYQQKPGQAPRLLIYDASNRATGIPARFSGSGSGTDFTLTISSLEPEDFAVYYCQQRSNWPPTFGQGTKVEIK | 7.82

Inquiry: Could you tell me which pKd is on file for H1.66 L1 XENP34522 (antibody, V domains shown) VH: QLQVQESGPGLVKPSETLSLTCTVSGGSISNSYFSWGWIRQPPGKGLEWIGSFYYGEKTYYAPSLKSRATISIDTSKSQFSLKLSSVTAADTAVYYCPRGPTMIRGVIDSWGQGTLVTVSS VL: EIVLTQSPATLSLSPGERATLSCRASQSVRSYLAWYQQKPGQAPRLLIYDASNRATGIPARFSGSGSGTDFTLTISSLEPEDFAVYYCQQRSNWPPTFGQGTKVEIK ?
Reply text: 9.21

Inquiry: // repeat for H1.75 L1 XENP34531 (antibody, V domains shown) VH: QLQVQESGPGLVKPSETLSLTCTVSGGSISNSYFSWGWIRQPPGKGLEWIGSFYYGEKTYYNPSLKSRATISIDTSKSQFSLQLSSVTAADTAVYYCPRGPTMIRGVIDSWGQGTLVTVSS VL: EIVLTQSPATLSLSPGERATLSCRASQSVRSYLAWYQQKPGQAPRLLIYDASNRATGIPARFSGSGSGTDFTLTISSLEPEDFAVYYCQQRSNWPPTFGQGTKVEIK and report
Reply text: 8.93

Inquiry: // repeat for H1.46 L1 XENP34502 (antibody, V domains shown) VH: QLQVQESGPGLVKPSETLSLTCTVSGGSISNSYFSWGWIRQPPGKGLEWIGSIYYGEKTYYNPSLKSRATISIDTSKSQFSLKLSSVTAADTAVYYCPRGPTMIRGVIDSWGQGTLVTVSS VL: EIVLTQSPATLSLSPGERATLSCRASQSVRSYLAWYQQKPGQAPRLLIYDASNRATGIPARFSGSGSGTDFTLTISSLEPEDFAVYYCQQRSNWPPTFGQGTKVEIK and report
Reply text: 8.49

Inquiry: // repeat for H1.40 L1 XENP34496 (antibody, V domains shown) VH: QLQVQESGPGLVKPSETLSLTCTVSGGSISNSYFSWGWIRQPPGKGLEWVGSFYYGEKTYYNPSLKSRATISIDTSKSQFSLKLSSVTAADTAVYYCPRGPTMIRGVIDSWGQGTLVTVSS VL: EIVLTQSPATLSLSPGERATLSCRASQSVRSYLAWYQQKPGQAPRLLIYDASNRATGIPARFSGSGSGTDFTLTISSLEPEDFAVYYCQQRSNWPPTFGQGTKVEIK and report
Reply text: 9.47

Inquiry: // repeat for H1.64 L1 XENP34520 (antibody, V domains shown) VH: QLQVQESGPGLVKPSETLSLTCTVSGGSISNSYFSWGWIRQPPGKGLEWIGSFYYGEKTNYNPSLKSRATISIDTSKSQFSLKLSSVTAADTAVYYCPRGPTMIRGVIDSWGQGTLVTVSS VL: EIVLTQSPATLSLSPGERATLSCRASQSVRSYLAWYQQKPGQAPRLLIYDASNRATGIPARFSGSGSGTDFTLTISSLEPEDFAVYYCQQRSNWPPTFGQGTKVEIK and report
Reply text: 8.27

Inquiry: // repeat for H1.49 L1 XENP34505 (antibody, V domains shown) VH: QLQVQESGPGLVKPSETLSLTCTVSGGSISNSYFSWGWIRQPPGKGLEWIGSFHYGEKTYYNPSLKSRATISIDTSKSQFSLKLSSVTAADTAVYYCPRGPTMIRGVIDSWGQGTLVTVSS VL: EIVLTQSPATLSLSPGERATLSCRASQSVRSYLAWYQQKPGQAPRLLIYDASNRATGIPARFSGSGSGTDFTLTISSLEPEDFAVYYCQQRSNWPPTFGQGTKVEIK and report
Reply text: 9.47

Inquiry: // repeat for H1.62 L1 XENP34518 (antibody, V domains shown) VH: QLQVQESGPGLVKPSETLSLTCTVSGGSISNSYFSWGWIRQPPGKGLEWIGSFYYGEKTFYNPSLKSRATISIDTSKSQFSLKLSSVTAADTAVYYCPRGPTMIRGVIDSWGQGTLVTVSS VL: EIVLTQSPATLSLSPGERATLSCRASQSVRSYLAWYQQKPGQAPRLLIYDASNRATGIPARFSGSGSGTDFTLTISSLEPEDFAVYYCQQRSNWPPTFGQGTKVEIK and report
Reply text: 8.87

Inquiry: // repeat for H1.67 L1 XENP34523 (antibody, V domains shown) VH: QLQVQESGPGLVKPSETLSLTCTVSGGSISNSYFSWGWIRQPPGKGLEWIGSFYYGEKTYYSPSLKSRATISIDTSKSQFSLKLSSVTAADTAVYYCPRGPTMIRGVIDSWGQGTLVTVSS VL: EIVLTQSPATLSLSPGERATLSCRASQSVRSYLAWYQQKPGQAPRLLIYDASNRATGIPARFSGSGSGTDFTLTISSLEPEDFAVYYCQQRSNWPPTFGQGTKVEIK and report
Reply text: 8.71
